- Target system: Cytochrome P450 1B1 (Homo sapiens)
- Assay method text: Competitive inhibition of CYP1B1 (unknown origin) expressed in yeast microsomes using (-)benzo[a]pyrene-7R-trans-7,8-dihyrodiol (B[a]P-7,8-diol) as substrate
Listed here: items and their measured Ki.
Number only, in µM; omit the unit.

// solved cases for Ki follow
Record smiles: CC(C)=CCOc1c2ccoc2cc2oc(=O)ccc12
Scale unit: µM
Reading: 6
--
Record smiles: CC(C)=CCOc1c2occc2cc2ccc(=O)oc12
Scale unit: µM
Reading: 1
--
Record smiles: CC(C)=CCC/C(C)=C/COc1c2ccoc2cc2oc(=O)ccc12
Scale unit: µM
Reading: 587

// next item, Ki requested
// fetch Ki given entry COc1c2ccoc2c(OC)c2oc(=O)ccc12
11

----------
- Target system: Cytochrome P450 1A2 (Homo sapiens)
- Assay method text: Inhibition of recombinant human CYP1A2 expressed in Escherichia coli DH5alpha using ethoxyresorufin as substrate preincubated for 3 mins followed by NADPH addition measured after 10 mins by spectrofluorometric assay
- Format: ADME
Measured property: pIC50
Remember, pIC50 is on a log scale: it is -log10 of the molar concentration.

# return recorded pIC50 for entry COc1cc(/C=C/c2ccc(OC)cc2OC)cc(OC)c1
5.52

----------
- Target system: Cytochrome P450 1B1 (Homo sapiens, UniProt Q16678)
- Assay method text: Inhibition of recombinant human CYP1B1 expressed in Escherichia coli coexpressing human NADPH-cytochrome P450 reductase using 7-ethoxyresorufin as substrate by fluorescence spectrophotometric analysis
Below, each entry is listed alongside its reported Ki.
Respond numerically; units are µM and should not be typed.

Record smiles: O=C1c2ccccc2C(=O)c2c1ccc(O)c2O
Ki [µM]: 0.5

Consider now this further molecule.
Please report Ki for the following molecule: O=C1c2ccccc2C(=O)c2c(O)c(O)cc(O)c21
0.7

----------
- Target system: UniProtKB Q16678
- Assay method text: Inhibition of CYP1B1 (unknown origin) expressed in Escherichia coli DH5alpha coexpressing human NADPH P450 reductase using 7-ethoxyresorufin as substrate after 2 to 6 mins in presence of NADPH by double reciprocal plot analysis
Measured property: Ki (nM)
Expressed in nM, but write only the number.

Name the recorded Ki of the item CC#Cc1ccc(-c2ccccc2)cc1 in your answer.
2300

----------
- Target system: Cytochrome P450 1A1 (Homo sapiens, UniProt P04798)
- Sequence (P04798 whole entry): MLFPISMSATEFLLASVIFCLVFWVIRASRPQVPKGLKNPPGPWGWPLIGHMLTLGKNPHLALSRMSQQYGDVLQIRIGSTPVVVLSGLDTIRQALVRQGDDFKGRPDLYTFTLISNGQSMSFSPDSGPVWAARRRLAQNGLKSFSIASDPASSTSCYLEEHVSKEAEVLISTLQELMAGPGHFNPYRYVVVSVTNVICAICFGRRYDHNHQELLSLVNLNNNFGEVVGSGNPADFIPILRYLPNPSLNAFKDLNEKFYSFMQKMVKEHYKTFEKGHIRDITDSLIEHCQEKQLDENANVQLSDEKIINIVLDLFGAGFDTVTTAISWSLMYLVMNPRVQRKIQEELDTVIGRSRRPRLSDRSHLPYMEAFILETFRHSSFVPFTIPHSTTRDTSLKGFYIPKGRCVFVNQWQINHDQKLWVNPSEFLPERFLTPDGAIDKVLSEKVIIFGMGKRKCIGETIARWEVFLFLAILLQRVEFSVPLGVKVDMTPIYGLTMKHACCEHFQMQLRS
- Assay method text: Inhibition of […] CYP1A1 expressed in Escherichia coli DH5alpha coexpressing NADPH-P450 reductase using 7-ethoxyresorufin O-deethylation as substrate in presence of NADPH by UV absorbance analysis
- Format: ADME
Measured property: pIC50
Reminder that pIC50 is minus the log10 of a molar concentration.

Quickly give me recorded pIC50 for O=c1c2ccccc2nc2n1CCc1c-2[nH]c2ccc(O)cc12
5.59

----------
- Target system: Cytochrome P450 1A2 (Homo sapiens, UniProt P05177)
- Sequence (P05177 whole entry): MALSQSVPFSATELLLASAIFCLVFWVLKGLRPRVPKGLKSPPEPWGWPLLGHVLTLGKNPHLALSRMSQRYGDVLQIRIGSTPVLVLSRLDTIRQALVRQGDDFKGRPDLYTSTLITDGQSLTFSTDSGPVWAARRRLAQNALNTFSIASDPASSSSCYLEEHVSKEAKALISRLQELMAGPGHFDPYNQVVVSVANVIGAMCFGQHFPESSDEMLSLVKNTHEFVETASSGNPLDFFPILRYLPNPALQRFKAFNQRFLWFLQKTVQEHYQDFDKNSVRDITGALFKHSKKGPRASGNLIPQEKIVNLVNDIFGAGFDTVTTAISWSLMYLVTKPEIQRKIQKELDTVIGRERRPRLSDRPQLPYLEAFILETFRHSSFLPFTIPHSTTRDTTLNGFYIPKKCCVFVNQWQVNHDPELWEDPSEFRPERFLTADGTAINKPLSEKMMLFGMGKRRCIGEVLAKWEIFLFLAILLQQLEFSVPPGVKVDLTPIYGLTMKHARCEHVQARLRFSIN
Measured property: pKi
Notebook: values listed as pKi are -log10 of the concentration (mol/L).

GET pKi where system = Cytochrome P450 1A2 (Homo sapiens, UniProt P05177) and item = CCCCCc1cc(O)c2c(c1)OC(C)(C)c1ccc(C)cc1-2
7.10

----------
- Target system: Cytochrome P450 1B1 (Homo sapiens, UniProt Q16678)
- Assay method text: Inhibition of human CYP1B1 expressed in Escherichia coli DH5alpha coexpressing human NADPH P450 reductase using 7-ethoxyresorufin as substrate in presence of NADP+ by spectrofluorometeric analysis
Measured property: pIC50
The meaning of pIC50 here: minus log10 of the concentration in molar units.

Compound: O=c1cc(-c2ccccc2)oc2cccc(O)c12 [5-HYDROXYFLAVONE]
Measured property: pIC50
Reading: 6.68
//
Compound: COc1ccc(-c2cc(=O)c3c(O)cc(O)cc3o2)cc1OC
Measured property: pIC50
Reading: 7.72
//
Compound: O=c1c(O)c(-c2ccccc2)oc2ccccc12
Measured property: pIC50
Reading: 7.05

Now, please, on to the next compound.
Provide pIC50, tested on Cytochrome P450 1B1 (Homo sapiens, UniProt Q16678), for O=c1cc(-c2ccccc2)oc2cc(O)ccc12 [7-HYDROXYFLAVONE] .
6.60

----------
Ki reference
- Target system: Cytochrome P450 1B1 (Homo sapiens, UniProt Q16678)
- Assay method text: Inhibition of CYP1B1 in […] recombinant human cytochrome P450 oxidoreductase using 7-ethoxyresorufin as substrate after 3 mins in presence of NADP+ by fluorescence assay
Enter your answer as a number in nM; do not include the unit.

Record smiles: COc1ccc(-c2coc3cc(O)cc(O)c3c2=O)cc1
Ki / nM: 1900

Here's the next entry for you.
Consider the molecule COc1ccc(-c2coc3cc(O)ccc3c2=O)cc1 and give its recorded Ki.
3700

----------
- Target system: UniProtKB Q16678
- Sequence (Q16678 whole entry): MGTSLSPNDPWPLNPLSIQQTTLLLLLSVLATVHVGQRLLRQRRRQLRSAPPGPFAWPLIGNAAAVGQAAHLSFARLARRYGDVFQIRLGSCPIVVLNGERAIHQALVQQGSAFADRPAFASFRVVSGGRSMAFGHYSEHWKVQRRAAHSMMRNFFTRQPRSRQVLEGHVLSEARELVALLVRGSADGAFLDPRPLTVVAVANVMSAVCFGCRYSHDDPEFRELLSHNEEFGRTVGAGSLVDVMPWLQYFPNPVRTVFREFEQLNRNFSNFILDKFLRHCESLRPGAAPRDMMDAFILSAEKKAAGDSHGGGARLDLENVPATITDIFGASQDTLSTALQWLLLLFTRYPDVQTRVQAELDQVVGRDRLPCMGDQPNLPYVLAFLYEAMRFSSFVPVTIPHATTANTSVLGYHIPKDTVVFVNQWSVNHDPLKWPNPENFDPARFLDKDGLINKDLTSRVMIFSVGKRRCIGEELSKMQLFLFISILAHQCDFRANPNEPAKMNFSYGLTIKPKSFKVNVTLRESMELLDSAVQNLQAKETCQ
- Assay method text: Inhibition of recombinant CYP1B1 (unknown origin) expressed in Escherichia coli DH5alphaF'Iq coexpressing human NADPH-P450 reductase using E2-d4 as substrate after 10 mins in presence of NADP+
Measured property: Ki (µM)
Write the answer as a number in µM, unit excluded.

Please review the entries below; each comes with its answer.
Molecule: COc1cc2c(cc1O)CC[C@@H]1[C@@H]2CC[C@]2(C)[C@@H](O)CC[C@@H]12 [2-METHOXYESTRADIOL]
Ki (µM): 36
//
Molecule: COc1c(O)ccc2c1CC[C@@H]1[C@@H]2CC[C@]2(C)[C@@H](O)CC[C@@H]12
Ki (µM): 149

Continue with the next molecule.
Using known records, supply Ki for COc1cc2c(cc1O)[C@H]1CC[C@]3(C)[C@@H](O)CC[C@H]3[C@@H]1CC2
28

----------
- Assay method text: Competitive inhibition of […] CYP1 expressed in supersomes coexpressing NADPH-CYP reductase using 7-Ethoxyresorufin as substrate measured every 5 mins for 30 mins in presence of NADPH by fluorescence assay
- Type: ADME
Measured property: Ki

Supply recorded Ki for CCCCCc1cc(O)c2c(c1)OC(C)(C)[C@@H]1CCC(C)=C[C@@H]21 here.
2.47 to 7.54 µM

----------
- Target system: Cytochrome P450 1A1 (Homo sapiens, UniProt P04798)
- Assay method text: Inhibition of human CYP1A1 expressed in Escherichia coli DH5alpha coexpressing human NADPH P450 reductase using 7-ethoxyresorufin as substrate in presence of NADPH by fluorimetric analysis
- Format: ADME
Measured property: IC50 (µM)
Give a bare numeral; the unit µM is implied.

Find the measured IC50 of C#Cc1cc2ccc3cccc4ccc(c1)c2c34 and report it.
0.151

----------
- Target system: Cytochrome P450 1A1 (Homo sapiens)
- Assay method text: Mixed type inhibition of human hepatic microsomes CYP1A1 expressed in supersomes coexpressing NADPH-cytochrome P450 reductase using 7-Ethoxyresorufin as substrate measured every 30 secs for 3 mins in presence of NADPH by spectrofluorometric analysis
- Type: ADME
Measured property: pKi
Quick note: pKi values are minus log10 of concentrations in mol/L.

Quick one: give measured pKi for COc1ccc2[nH]cc(CCNC(C)=O)c2c1
4.23
